# TEST_PROTOCOL: Efflux ratio of permeability from basolateral to apical side over apical to basolateral side in human Caco2 cells after 2 hrs by HPLC analysis
# Assay type: ADME, cell-based
# CONDITIONS_USED: Caco-2
PROPERTY_NAME: efflux ratio at 2 h

COc1cc(C[C@@H](CO)[C@H](CO)Cc2ccc(O)c(OC)c2)ccc1O [(+)-SECOISOLARICIRESINOL]    1.2

1 = OC[C@H](Cc1cccc(O)c1)[C@H](CO)Cc1cccc(O)c1
2 = O=C1OC[C@H](Cc2cccc(O)c2)[C@H]1Cc1cccc(O)c1 (relative stereo)
Incoming: Just curious, which one has the larger efflux ratio at 2 h reading, 1 or 2 ? In your reply, give the label of the chosen option.
Outgoing: 1
(1: 1.2, 2: 0.8)

====

# TEST_PROTOCOL: Apparent permeability across basolateral to apical side in human Caco2 cells after 2 hrs by HPLC analysis
# Format: ADME, cell-based, Caco-2
# CONDITIONS_USED: Caco-2
PROPERTY_NAME: Papp B→A at 2 h (nm/s)

O=C1OC[C@H](Cc2cccc(O)c2)[C@H]1Cc1cccc(O)c1 (relative stereo) [ENTEROLACTONE]    106
COc1cc(C[C@@H](CO)[C@H](CO)Cc2ccc(O)c(OC)c2)ccc1O [(+)-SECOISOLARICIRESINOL]    95
OC[C@H](Cc1cccc(O)c1)[C@H](CO)Cc1cccc(O)c1 [ENTERODIOL]    89

====

# TEST_PROTOCOL: Stability in HBSS after 48 hrs
# Assay type: physicochemical
# CONDITIONS_USED: read-out: Stability
PROPERTY_NAME: remaining at 48 h

COc1cc(C[C@@H](CO)[C@H](CO)Cc2ccc(O)c(OC)c2)ccc1O [(+)-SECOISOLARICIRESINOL]    > 95%
O=C1OC[C@H](Cc2cccc(O)c2)[C@H]1Cc1cccc(O)c1 (relative stereo)    > 95%
COc1cc(C[C@@H](CO[C@@H]2O[C@H](CO)[C@@H](O)[C@H](O)[C@H]2O)[C@H](CO[C@@H]2O[C@H](CO)[C@@H](O)[C@H](O)[C@H]2O)Cc2ccc(O)c(OC)c2)ccc1O    > 95%

We next turn to a different compound, shown below.
Incoming: For OC[C@H](Cc1cccc(O)c1)[C@H](CO)Cc1cccc(O)c1 , what is its reported remaining at 48 h?
Outgoing: > 95%

Value source: ChEMBL document CHEMBL3102827
